experiment: Pharmacokinetics in ICR mice after intravenous and intragastric administration; type: in vivo; settings: male, ICR, mouse, plasma, po, 5 mg/kg, ICR mice, PO 5 mg/kg, individual animal; read-out: t1/2 (converted)
Binarize half-life at 100 min; below is met, at or above is not met.

Compound: COc1cc(OC(C)C)ncc1-c1nc2c(n1C(C)C)[C@@]1(C(=O)Nc3cc(Cl)ccc31)N(c1cc(Cl)ccc1C)C2=O [Example S-69]
Label class: not met
--
Compound: COc1cc(C2CC2)ncc1-c1nc2c(n1C(C)C)[C@@]1(C(=O)Nc3cc(Cl)ccc31)N(c1cc(Cl)ccc1C)C2=O [Example S-103]
Label class: not met
--
Compound: COc1cc(OC)c(-c2nc3c(n2C(C)C)[C@@]2(C(=O)Nc4cc(Cl)ccc42)N(c2cc(Cl)ccc2F)C3=O)cn1 [Example S-133]
Label class: met
--
Compound: COc1cc(OC)c(-c2nc3c(n2C(C)C)[C@@]2(C(=O)Nc4cc(Cl)ccc42)N(c2cc(Cl)cnc2C)C3=O)cn1 [Example S-131]
Label class: met
--
Compound: COc1nc(C2CC2)ncc1-c1nc2c(n1C(C)C)[C@@]1(C(=O)Nc3cc(Cl)ccc31)N(c1cc(Cl)ccc1C)C2=O [Example S-121]
Label class: not met
--
Compound: COc1cc(C(C)C)ccc1-c1nc2c(n1C(C)C)[C@@]1(C(=O)Nc3cc(Cl)ccc31)N(c1cc(Cl)ccc1C)C2=O [Example S-32]
Label class: not met
--
Compound: COc1ncc(-c2nc3c(n2C(C)C)[C@@]2(C(=O)Nc4cc(Cl)ccc42)N(c2cc(Cl)ccc2F)C3=O)c(OC)n1 [Example S-44]
Label class: not met
--
Compound: CCOc1cc(OC)c(-c2nc3c(n2C(C)C)[C@@]2(C(=O)Nc4cc(Cl)ccc42)N(c2cc(Cl)ccc2F)C3=O)cn1 [Example S-98]
Label class: not met
--
Compound: COc1ccc(-c2nc3c(n2C(C)C)[C@@]2(C(=O)Nc4cc(Cl)ccc42)N(c2cc(Cl)cnc2C)C3=O)c(OC)c1 [Example S-61]
Label class: not met
--
Compound: COc1cc(OC)c(-c2nc3c(n2C(C)C)[C@@]2(C(=O)Nc4cc(Cl)ccc42)N(c2cccc(Cl)c2)C3=O)cn1 [Example S-115]
Label class: met
--
Compound: COc1ncc(-c2nc3c(n2C(C)C)[C@@]2(C(=O)Nc4cc(Cl)ccc42)N(c2cc(F)cc(Cl)c2)C3=O)c(OC)n1 [Example S-45]
Label class: not met

----------
The next entries give measured pIC50 for MDM2 (Homo sapiens).
pIC50: −log10 of the molar value.
Endpoint label: pIC50

Smiles code: COc1cc(N)ccc1-c1nc2c(n1C(C)C)[C@]1(C(=O)Nc3cc(Cl)ccc31)N(c1cc(F)cc(Cl)c1)C2=O
Endpoint label: pIC50
Value observed: 6.45
--
Smiles code: COc1cc(C(N)=O)ccc1-c1nc2c(n1C(C)C)[C@@]1(C(=O)Nc3cc(Cl)ccc31)N(c1cc(Cl)ccc1C)C2=O
Endpoint label: pIC50
Value observed: 8.73
--
Smiles code: COc1nc(N(C)C)ncc1-c1nc2c(n1C(C)C)[C@]1(C(=O)Nc3cc(Cl)ccc31)N(c1cc(Cl)cnc1C)C2=O
Endpoint label: pIC50
Value observed: 6.37
--
Smiles code: COc1nc(N2CCCC2)ncc1-c1nc2c(n1C(C)C)[C@@]1(C(=O)Nc3cc(Cl)ccc31)N(c1cc(Cl)ccc1C)C2=O
Endpoint label: pIC50
Value observed: 8.49
--
Smiles code: COc1ccccc1-c1nc2c(n1C(C)C)[C@@]1(C(=O)Nc3cc(Cl)ccc31)N(c1cc(Cl)c(=O)n(C)c1)C2=O
Endpoint label: pIC50
Value observed: 9.08
--
Smiles code: COc1cc(C2CC2)ncc1-c1nc2c(n1C(C)C)[C@@]1(C(=O)Nc3cc(Cl)ccc31)N(c1cc(Cl)ccc1C)C2=O
Endpoint label: pIC50
Value observed: 8.74
--
Smiles code: COc1cc(C2CC2)ncc1-c1nc2c(n1C(C)C)[C@@]1(C(=O)Nc3cc(Cl)ccc31)N(c1cc(F)cc(Cl)c1)C2=O
Endpoint label: pIC50
Value observed: 8.75
--
Smiles code: COc1nc(OC(C)C)ncc1-c1nc2c(n1C(C)C)[C@]1(C(=O)Nc3cc(Cl)ccc31)N(c1cc(Cl)cnc1C)C2=O
Endpoint label: pIC50
Value observed: 5.74
--
Smiles code: COc1ccc(CC(=O)N(C)C)cc1-c1nc2c(n1C(C)C)[C@]1(C(=O)Nc3cc(Cl)ccc31)N(c1cc(Cl)ccc1C)C2=O
Endpoint label: pIC50
Value observed: 6.95
--
Smiles code: COc1cc(OC)c(-c2nc3c(n2C(C)C)[C@]2(C(=O)Nc4cc(Cl)ccc42)N(c2cc(F)cc(Cl)c2)C3=O)cn1
Endpoint label: pIC50
Value observed: 6.28
--
Smiles code: COc1cc(N(C)C)ccc1-c1nc2c(n1C(C)C)[C@]1(C(=O)Nc3cc(Cl)ccc31)N(c1cc(Cl)ccc1C)C2=O
Endpoint label: pIC50
Value observed: 6.76
--
Smiles code: CCc1ccc(-c2nc3c(n2C(C)C)[C@]2(C(=O)Nc4cc(Cl)ccc42)N(c2cc(Cl)ccc2C)C3=O)c(OC)c1
Endpoint label: pIC50
Value observed: 6.23
--
Smiles code: COc1cc(N)ccc1-c1nc2c(n1C(C)C)[C@@]1(C(=O)Nc3cc(Cl)ccc31)N(c1cc(F)cc(Cl)c1)C2=O
Endpoint label: pIC50
Value observed: 8.91

----------
assay: Pharmacokinetics in ICR mice after intravenous and intragastric administration; assay type: in vivo; settings: male, ICR, mouse, plasma, iv, 2 mg/kg, ICR mice, IV 2 mg/kg, mean of 3 animals; read-out: MRT(0-∞)
Endpoint label: MRT inf (h)

Smiles code: COc1cc(C(C)C)ccc1-c1nc2c(n1C(C)C)[C@@]1(C(=O)Nc3cc(Cl)ccc31)N(c1cc(Cl)ccc1C)C2=O
Value observed: 1.68
//
Smiles code: COc1cc(OC)c(-c2nc3c(n2C(C)C)[C@@]2(C(=O)Nc4cc(Cl)ccc42)N(c2cc(Cl)ccc2F)C3=O)cn1
Value observed: 1.31
//
Smiles code: COc1cc(C2CC2)ncc1-c1nc2c(n1C(C)C)[C@@]1(C(=O)Nc3cc(Cl)ccc31)N(c1cc(Cl)ccc1C)C2=O
Value observed: 4.62
//
Smiles code: CCOc1ncc(-c2nc3c(n2C(C)C)[C@@]2(C(=O)Nc4cc(Cl)ccc42)N(c2cc(Cl)cnc2C)C3=O)c(OC)n1
Value observed: 1.48
//
Smiles code: COc1ncc(-c2nc3c(n2C(C)C)[C@@]2(C(=O)Nc4cc(Cl)ccc42)N(c2cc(Cl)ccc2F)C3=O)c(OC)n1
Value observed: 2.51
//
Smiles code: COc1cc(OC(C)C)ncc1-c1nc2c(n1C(C)C)[C@@]1(C(=O)Nc3cc(Cl)ccc31)N(c1cc(Cl)cnc1C)C2=O
Value observed: 2.3
//
Smiles code: COc1ncc(-c2nc3c(n2C(C)C)[C@@]2(C(=O)Nc4cc(Cl)ccc42)N(c2cc(F)cc(Cl)c2)C3=O)c(OC)n1
Value observed: 1.45
//
Smiles code: COc1nc(C2CC2)ncc1-c1nc2c(n1C(C)C)[C@@]1(C(=O)Nc3cc(Cl)ccc31)N(c1cc(Cl)cnc1C)C2=O
Value observed: 1.88
//
Smiles code: COc1cc(C(F)(F)F)ncc1-c1nc2c(n1C(C)C)[C@@]1(C(=O)Nc3cc(Cl)ccc31)N(c1cc(Cl)ccc1C)C2=O
Value observed: 4.76
//
Smiles code: COc1cc(OC(C)C)ncc1-c1nc2c(n1C(C)C)[C@@]1(C(=O)Nc3cc(Cl)ccc31)N(c1cc(Cl)ccc1C)C2=O
Value observed: 4.58
//
Smiles code: CCOc1cc(OC)c(-c2nc3c(n2C(C)C)[C@@]2(C(=O)Nc4cc(Cl)ccc42)N(c2cc(Cl)ccc2F)C3=O)cn1
Value observed: 2.02
//
Smiles code: COc1cc(OC)c(-c2nc3c(n2C(C)C)[C@@]2(C(=O)Nc4cc(Cl)ccc42)N(c2cc(Cl)cnc2C)C3=O)cn1
Value observed: 0.89
//
Smiles code: COc1cc(OC)c(-c2nc3c(n2C(C)C)[C@@]2(C(=O)Nc4cc(Cl)ccc42)N(c2cccc(Cl)c2)C3=O)cn1
Value observed: 0.88

----------
experiment: Pharmacokinetics in ICR mice after intravenous and intragastric administration; assay type: in vivo; conditions: male, ICR, mouse, plasma, po, 5 mg/kg, oral intragastric administration 5 mg/kg; read-out: half-life (converted)
Endpoint label: half-life (h)

Smiles code: COc1cc(OC(C)C)ncc1-c1nc2c(n1C(C)C)[C@@]1(C(=O)Nc3cc(Cl)ccc31)N(c1cc(Cl)ccc1C)C2=O
Value observed: 2.18

Smiles code: COc1cc(OC)c(-c2nc3c(n2C(C)C)[C@@]2(C(=O)Nc4cc(Cl)ccc42)N(c2cc(Cl)cnc2C)C3=O)cn1
Value observed: 1.26

Smiles code: COc1cc(OC)c(-c2nc3c(n2C(C)C)[C@@]2(C(=O)Nc4cc(Cl)ccc42)N(c2cc(Cl)ccc2C)C3=O)cn1
Value observed: 1.69

Smiles code: COc1cc(C2CC2)ncc1-c1nc2c(n1C(C)C)[C@@]1(C(=O)Nc3cc(Cl)ccc31)N(c1cc(Cl)ccc1C)C2=O
Value observed: 1.93

Smiles code: COc1ncc(-c2nc3c(n2C(C)C)[C@@]2(C(=O)Nc4cc(Cl)ccc42)N(c2cc(Cl)ccc2F)C3=O)c(OC)n1
Value observed: 2

Smiles code: CCOc1cc(OC)c(-c2nc3c(n2C(C)C)[C@@]2(C(=O)Nc4cc(Cl)ccc42)N(c2cc(Cl)ccc2F)C3=O)cn1
Value observed: 2.24

Smiles code: COc1ncc(-c2nc3c(n2C(C)C)[C@@]2(C(=O)Nc4cc(Cl)ccc42)N(c2cc(Cl)ccc2C)C3=O)c(OC)n1
Value observed: 1.59

Smiles code: COc1nc(C2CC2)ncc1-c1nc2c(n1C(C)C)[C@@]1(C(=O)Nc3cc(Cl)ccc31)N(c1cc(Cl)ccc1C)C2=O
Value observed: 3.19

Smiles code: CCOc1cc(OC)c(-c2nc3c(n2C(C)C)[C@@]2(C(=O)Nc4cc(Cl)ccc42)N(c2cc(Cl)cnc2C)C3=O)cn1
Value observed: 2.11

Smiles code: COc1cc(C(C)C)ccc1-c1nc2c(n1C(C)C)[C@@]1(C(=O)Nc3cc(Cl)ccc31)N(c1cc(Cl)ccc1C)C2=O
Value observed: 2.16

Smiles code: COc1ncc(-c2nc3c(n2C(C)C)[C@@]2(C(=O)Nc4cc(Cl)ccc42)N(c2cc(F)cc(Cl)c2)C3=O)c(OC)n1
Value observed: 1.86

Smiles code: COc1cc(OC(C)C)ncc1-c1nc2c(n1C(C)C)[C@@]1(C(=O)Nc3cc(Cl)ccc31)N(c1cc(Cl)cnc1C)C2=O
Value observed: 1.84

Smiles code: COc1ccc(-c2nc3c(n2C(C)C)[C@@]2(C(=O)Nc4cc(Cl)ccc42)N(c2cc(Cl)cnc2C)C3=O)c(OC)c1
Value observed: 3.09
